Where do these numbers come from? They come from ChEMBL document CHEMBL2401735.

Assay Protocol: Cytotoxicity against human Hep2 cells assessed as cell survival fraction at 10 ug/ml after 24 hrs by trypan blue exclusion assay (reference value: 97 to 98%)
Type: cell-based
Experimental Parameters: HEp-2 cells, read-out: Survival
Value Kind: viability at 24 h, 10 ug/ml (%)

1. CCC(CC)=NNc1nc(-c2ccc(C)cc2)cs1 : 72.4
2. Clc1ccc(-c2csc(NN=C3CCCCCCC3)n2)c(Cl)c1 : 87.5
3. CC/C(C)=N/Nc1nc(-c2ccc(OC)cc2)cs1 : 64
4. C/C(=N\Nc1nc(-c2ccc(Cl)cc2Cl)cs1)C1CCCCC1 : 88
5. C=CCC/C(C)=N/Nc1nc(-c2ccc(OC)cc2)cs1 : 72.4
6. CCC/C(C)=N/Nc1nc(-c2ccc(OC)cc2)cs1 : 75.5
7. CCC/C(C)=N/Nc1nc(-c2ccc(C)cc2)cs1 : 83.2
8. CCCC/C(CC)=N/Nc1nc(-c2ccc(OC)cc2)cs1 : 70.2
